Ref: ChEMBL document CHEMBL1145964

# experimental_target: Tubulin alpha chain (Sus scrofa) (UniProt P02550)
# Sequence (P02550 whole entry, looked up): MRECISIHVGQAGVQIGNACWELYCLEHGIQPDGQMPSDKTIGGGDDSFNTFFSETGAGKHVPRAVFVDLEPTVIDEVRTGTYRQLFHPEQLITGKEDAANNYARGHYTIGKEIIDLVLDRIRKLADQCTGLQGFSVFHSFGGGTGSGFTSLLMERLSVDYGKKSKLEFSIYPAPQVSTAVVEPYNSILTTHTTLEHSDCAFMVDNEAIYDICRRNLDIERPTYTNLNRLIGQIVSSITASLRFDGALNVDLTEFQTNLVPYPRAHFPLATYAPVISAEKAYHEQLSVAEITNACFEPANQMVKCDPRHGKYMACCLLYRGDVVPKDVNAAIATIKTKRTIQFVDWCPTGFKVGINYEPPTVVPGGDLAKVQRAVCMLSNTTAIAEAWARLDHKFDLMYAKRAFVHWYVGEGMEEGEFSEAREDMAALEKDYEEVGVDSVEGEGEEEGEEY
# assay_method_text: Percent inhibitory activity (100 uM) against colchicine binding to tubulin […]
# condition_summary: Homo sapiens
parameter_measured: inhibition (%)

(P) COc1ccc(/C=C\c2cc(OC)c3c(c2)OCO3)cc1NC(=O)C(N)C(C)C (configuration not stated)
(Q) COc1ccc(/C=C\c2cc(OC)c3c(c2)OCO3)cc1NC(=O)CN
Compare the recorded inhibition of P and Q ; state which is larger. Pick one and reply with its label.
Q

(A) COc1ccc(/C=C\c2cc(OC)c3c(c2)OCO3)cc1NC(=O)C(N)Cc1c[nH]c2ccccc12 (configuration not stated)
(B) COc1ccc(/C=C\c2cc(OC)c3c(c2)OCO3)cc1NC(=O)C(N)CO (configuration not stated)
Compare the recorded inhibition of A and B ; state which is larger. Pick one and reply with its label.
B

---

# Test system: MCF7
# assay_method_text: Mitotic index in MCF-7 breast cancer cells was determined
# Type: functional, Homo sapiens
parameter_measured: Mitotic index
No unit in the answer, please; the number alone is enough.

compound: COc1ccc(/C=C\c2cc(OC)c3c(c2)OCO3)cc1NC(=O)CN
experimental_target: MCF7
Mitotic index: 52

Mitotic index for COc1ccc(/C=C\c2cc(OC)c3c(c2)OCO3)cc1NC(=O)C(N)CO (stereo not drawn) is 35

Mitotic index for COc1ccc(/C=C\c2cc(OC)c3c(c2)OCO3)cc1NC(=O)C(N)Cc1c[nH]c2ccccc12 (stereo not drawn) is 57

Mitotic index for COc1ccc(/C=C\c2cc(OC)c3c(c2)OCO3)cc1NC(=O)C(N)Cc1ccc(O)cc1 (stereo not drawn) is 44

Mitotic index for COc1ccc(/C=C\c2cc(OC)c3c(c2)OCO3)cc1NC(=O)C(N)Cc1ccccc1 (stereo not drawn) is 52

Mitotic index for COc1ccc(/C=C\c2cc(OC)c(OC)c(OC)c2)cc1O is 57

Mitotic index for COc1ccc(/C=C\c2cc(OC)c3c(c2)OCO3)cc1NC(=O)C(N)CS (stereo not drawn) is 42

Mitotic index for COc1ccc(/C=C\c2cc(OC)c3c(c2)OCO3)cc1NC(=O)C(N)C(C)C (stereo not drawn) is 48

---

# experimental_target: Tubulin alpha chain (Sus scrofa)
# assay_method_text: Percent inhibitory activity (100 uM) against colchicine binding to tubulin […]
# condition_summary: Homo sapiens
parameter_measured: inhibition (%)

compound: COc1ccc(/C=C\c2cc(OC)c3c(c2)OCO3)cc1NC(=O)C(N)Cc1ccccc1 (stereo not drawn)
experimental_target: Tubulin alpha chain (Sus scrofa)
units_text: %
reading: 16
--
compound: COc1ccc(/C=C\c2cc(OC)c3c(c2)OCO3)cc1NC(=O)C(N)CS (stereo not drawn)
experimental_target: Tubulin alpha chain (Sus scrofa)
units_text: %
reading: 15
--
compound: COc1ccc(/C=C\c2cc(OC)c3c(c2)OCO3)cc1NC(=O)C(N)Cc1ccc(O)cc1 (stereo not drawn)
experimental_target: Tubulin alpha chain (Sus scrofa)
units_text: %
reading: 19
